Settings: in ethyl acetate, 307.85 K

Smiles Repr | solubility (mole fraction)
CC(C)(C#N)N=NC(C)(C)C#N | 0.119

---

Settings: in methanol, 278.15 K
Parameter: solubility (mole fraction)

Smiles Repr | Parameter | Experimental Result
CC(C)(C#N)N=NC(C)(C)C#N | solubility (mole fraction) | 0.00567

---

Conditions: in ethyl acetate, 298.35 K
Parameter: solubility (mole fraction)

Smiles Repr | Experimental Result
CC(C)(C#N)N=NC(C)(C)C#N | 0.0821

---

Details: in methanol, 283.15 K

Smiles Repr | solubility (mole fraction)
CC(C)(C#N)N=NC(C)(C)C#N | 0.00738
